Please provide measured IC50 for the entries that follow.
Tgt: human TRPV1 receptor (hTRPV1) (Homo sapiens, UniProt Q8NER1)
Sequence (Q8NER1 whole entry): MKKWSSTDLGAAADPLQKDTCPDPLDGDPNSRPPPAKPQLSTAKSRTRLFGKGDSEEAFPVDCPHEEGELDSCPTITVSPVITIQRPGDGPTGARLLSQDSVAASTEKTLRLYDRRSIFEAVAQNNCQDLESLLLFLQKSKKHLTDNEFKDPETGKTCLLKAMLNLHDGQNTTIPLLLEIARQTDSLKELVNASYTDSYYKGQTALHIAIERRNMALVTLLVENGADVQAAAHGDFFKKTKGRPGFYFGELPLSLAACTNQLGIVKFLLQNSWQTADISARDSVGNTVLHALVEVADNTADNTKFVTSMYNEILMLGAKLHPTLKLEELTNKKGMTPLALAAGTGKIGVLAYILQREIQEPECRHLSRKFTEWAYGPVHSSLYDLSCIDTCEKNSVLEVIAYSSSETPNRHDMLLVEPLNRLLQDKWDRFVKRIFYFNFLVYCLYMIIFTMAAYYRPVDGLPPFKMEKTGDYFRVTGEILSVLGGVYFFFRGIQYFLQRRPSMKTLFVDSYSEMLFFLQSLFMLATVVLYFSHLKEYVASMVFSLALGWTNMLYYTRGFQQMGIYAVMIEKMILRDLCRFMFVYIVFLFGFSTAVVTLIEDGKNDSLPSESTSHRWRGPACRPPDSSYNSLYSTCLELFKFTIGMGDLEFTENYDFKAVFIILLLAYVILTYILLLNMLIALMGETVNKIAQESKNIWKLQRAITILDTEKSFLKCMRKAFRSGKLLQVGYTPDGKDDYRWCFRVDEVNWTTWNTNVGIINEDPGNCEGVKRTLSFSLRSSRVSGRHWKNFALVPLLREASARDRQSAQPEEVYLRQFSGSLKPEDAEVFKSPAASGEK
Measurement Protocol: Capsaicin activation assay (Ca2+ influx, FLIPR)
Condition Set: 0.05 μM capsaicin, 1321N1 cells expressing hTRPV1
Please append the unit to your numeric answer.

Input CC1(C)C[C@@H](NC(=O)Nc2cccc3c2C[C@@H](O)CC3)c2cc(F)ccc2O1 . Output IC50: 0.032 µM

Input CC1(C)C[C@@H](NC(=O)Nc2cccc3c2C[C@@H](O)CC3)c2ccc(OC(F)(F)F)cc2O1 . Output IC50: 0.013 µM

Input CC1(C)C[C@@H](NC(=O)Nc2cccc3c2C[C@@H](O)CC3)c2ccc(F)cc2O1 . Output IC50: 0.02 µM

Input CCC1(CC)C[C@@H](NC(=O)Nc2cccc3c2C[C@H](O)CC3)c2cccc(F)c2O1 . Output IC50: 0.02 µM

Please state, for each entry, its recorded IC50.
1. CC1(C)C[C@@H](NC(=O)Nc2cccc3c2C[C@@H](O)CC3)c2ccc(Cl)cc2O1
2. CCC1(CC)C[C@@H](NC(=O)Nc2cccc3c2C[C@H](O)CC3)c2ccc(F)cc2O1
3. Cc1cc2c(NC(=O)N[C@@H]3CC(C)(C)Oc4cc(OC(F)(F)F)ccc43)cccc2cn1

result:
1: 0.021 µM; 2: 0.013 µM; 3: 0.008 µM

Input CC1(C)C[C@@H](NC(=O)Nc2cccc3cnc(N)cc23)c2ccc(C(F)(F)F)cc2O1 . Output IC50: 0.017 µM
